Target: Muscarinic acetylcholine receptor M2 (Homo sapiens) (UniProt P08172)
Sequence (P08172 whole entry, looked up): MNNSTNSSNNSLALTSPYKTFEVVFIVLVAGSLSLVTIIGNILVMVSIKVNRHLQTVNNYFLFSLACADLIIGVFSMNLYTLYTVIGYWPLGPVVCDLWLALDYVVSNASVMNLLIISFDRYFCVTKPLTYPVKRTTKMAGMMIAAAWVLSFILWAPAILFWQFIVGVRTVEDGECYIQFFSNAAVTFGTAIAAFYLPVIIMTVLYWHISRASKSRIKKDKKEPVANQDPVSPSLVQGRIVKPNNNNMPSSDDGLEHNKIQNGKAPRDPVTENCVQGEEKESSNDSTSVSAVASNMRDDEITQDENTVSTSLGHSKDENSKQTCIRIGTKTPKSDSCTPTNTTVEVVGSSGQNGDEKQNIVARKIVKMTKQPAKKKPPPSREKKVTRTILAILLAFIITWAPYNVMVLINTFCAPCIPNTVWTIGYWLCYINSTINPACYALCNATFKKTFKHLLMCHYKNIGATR
Assay: NVS_GPCR_hM2: NovaScreen (NVS) G Protein-Coupled Receptor Assay for human Muscarinic, M2 Receptor (AID 2283273)
Records with an inconclusive call do not appear. Active and inactive are the calls of the source. The calls were made as follows: active = hit-call score of the fitted dose curve at least 0.9, where 1 is the maximum; inconclusive = response in the unintended direction; inactive = score below 0.9.
Labels: Yes = active, No = inactive

- NC(=Nc1ccccc1)Nc1ccccc1: Yes
- CO[C@@H]1COCC[C@@H]1N[C@@H]1CC[C@@](C(=O)N2CCc3ncc(C(F)(F)F)cc3C2)(C(C)C)C1: Yes
- CN(C)C(=O)NC1(c2ccccc2)CCN(CCC[C@]2(c3ccc(Cl)c(Cl)c3)CCCN(C(=O)c3ccccc3)C2)CC1: Yes
- CC(=O)[C@@]1(O)CC[C@H]2[C@@H]3CCC4=CC(=O)CC[C@]4(C)[C@H]3CC[C@@]21C: Yes
- CN(C)C(=O)NC1(c2ccccc2)CCN(CC[C@@]2(c3ccc(F)c(F)c3)CN(C(=O)c3ccccc3)CCO2)CC1: Yes
- O=C(O)c1[nH]n(-c2ccc(S(=O)(=O)O)cc2)c(=O)c1N=Nc1ccc(S(=O)(=O)O)cc1: No

---

Read-out: Nuclear factor erythroid 2-related factor 2 (Homo sapiens) (UniProt Q16236)
Sequence (Q16236 whole entry, looked up): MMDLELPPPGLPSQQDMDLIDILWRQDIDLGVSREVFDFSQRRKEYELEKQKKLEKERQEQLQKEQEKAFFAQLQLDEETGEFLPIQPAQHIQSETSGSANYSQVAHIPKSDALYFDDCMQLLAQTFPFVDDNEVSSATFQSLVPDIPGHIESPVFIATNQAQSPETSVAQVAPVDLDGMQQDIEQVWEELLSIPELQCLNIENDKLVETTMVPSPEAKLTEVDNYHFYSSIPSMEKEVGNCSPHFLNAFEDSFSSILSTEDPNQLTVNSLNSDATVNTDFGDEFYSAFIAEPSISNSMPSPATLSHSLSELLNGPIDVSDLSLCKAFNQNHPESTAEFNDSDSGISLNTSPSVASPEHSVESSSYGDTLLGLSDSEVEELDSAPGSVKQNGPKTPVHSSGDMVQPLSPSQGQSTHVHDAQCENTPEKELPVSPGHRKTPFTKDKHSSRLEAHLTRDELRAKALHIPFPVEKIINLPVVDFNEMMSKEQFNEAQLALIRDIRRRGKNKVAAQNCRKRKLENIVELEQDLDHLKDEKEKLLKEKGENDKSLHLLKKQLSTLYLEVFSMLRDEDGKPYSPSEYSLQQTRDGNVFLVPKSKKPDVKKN
Assay: LTEA_HepaRG_NFE2L2: Life Technologies and Expression Analysis (LTEA) Assay for Nuclear factor erythroid 2-related factor 2 (NFE2L2) Transcription Factor using HepaRG (AID 2283527)
Settings: mRNA level, 48 h; actives raise or lower the signal
Activity calls are given as the source filed them. The calls were made as follows: active = hit-call score of the fitted dose curve at least 0.9, where 1 is the maximum; inactive = score below 0.9.
Outcomes: active, inactive

- Cc1cn([C@H]2C=C[C@@H](CO)O2)c(=O)[nH]c1=O: inactive
- CCN(CC)CCOc1ccc(C(=C(Cl)c2ccccc2)c2ccccc2)cc1: active
- OCC(O)CO: inactive
- O=C(Oc1ccccc1)c1cccc(C(=O)Oc2ccccc2)c1: inactive
- CC(=O)CC(c1ccccc1)c1c(O)c2ccccc2oc1=O (configuration not stated): inactive
- Cn1cnc2c1c(=O)[nH]c(=O)n2C: inactive
- CC(COCC(C)OC(=O)c1ccccc1)OC(=O)c1ccccc1 (configuration not stated): inactive
- CCOCCOCCO: inactive
- CC(C)(C)c1ccccc1: inactive
- CCCC[C@H]1CN(CC2CCOCC2)C(=O)OC12CCN(C1(C)CCN(C(=O)c3c(C)ncnc3C)CC1)CC2: inactive
- CN(C)C(=O)NC1(c2ccccc2)CCN(CC[C@@]2(c3ccc(F)c(F)c3)CN(C(=O)c3ccccc3)CCO2)CC1: inactive
- CCCCc1nc2cccnc2n1Cc1ccc(-c2ccccc2-c2nnn[nH]2)cc1: inactive
- CCC(C)N(C)C(=O)c1cc2ccccc2c(-c2ccccc2Cl)n1 (configuration not stated): active
- CC(C)c1cccc(C(C)C)c1NC(=O)NS(=O)(=O)c1cc(C(C)(C)O)co1: inactive
- CC(C)NCC(O)c1ccc(O)c(O)c1 (configuration not stated): active
- O=Cc1ccccc1C=O: inactive
- NC=O: inactive
- CCCCC(CC)COC(=O)CCCCCCCC(=O)OCC(CC)CCCC (configuration not stated): inactive
- Cc1c(C)c2c(c(C)c1O)CCC(C)(COc1ccc(CC3SC(=O)NC3=O)cc1)O2 (configuration not stated): inactive
- O=C(O)CC(O)(CC(=O)O)C(=O)O: inactive
- CCCC(=O)O: inactive
- O=C(O)c1cccnc1: inactive

---

Assay: APR_HepG2_P-H2AX_24hr: Apredica 24-hour HepG2 Assay for H2AX Phosphorylation (AID 2282920)
Details: high-content imaging, actives raise or lower the signal
Activity calls are given as the source filed them. Rule for the calls: active = hit-call score of the fitted dose curve at least 0.9, where 1 is the maximum; inactive = score below 0.9.
Classes used: y for active, n for inactive

- CCCCCCC(C=O)=Cc1ccccc1: n
- Cc1cn([C@H]2C=C[C@@H](CO)O2)c(=O)[nH]c1=O: n
- CN(C)C(=O)NC1(c2ccccc2)CCN(CC[C@@]2(c3ccc(F)c(F)c3)CN(C(=O)c3ccccc3)CCO2)CC1: n
- Cc1cc(Cc2ccc(N)c(C)c2)ccc1N: n
- CCN(CC)CCOc1ccc(C(=C(Cl)c2ccccc2)c2ccccc2)cc1: y

---

Read-out: Cytochrome P450 (CYP1A1), CYP1A1 (gene 1543)
Experiment: LTEA_HepaRG_CYP1A1: Life Technologies and Expression Analysis (LTEA) Assay for Cytochrome P450 (CYP1A1) using HepaRG (AID 2283454)
Conditions: mRNA level, 48 h; actives raise or lower the signal
Activity calls are given as the source filed them. The calls were made as follows: active = hit-call score of the fitted dose curve at least 0.9, where 1 is the maximum; inactive = score below 0.9.
Outcome codes: active, inactive

* CCCC[C@H]1CN(CC2CCOCC2)C(=O)OC12CCN(C1(C)CCN(C(=O)c3c(C)ncnc3C)CC1)CC2 | inactive
* N[C@@H](Cc1c[nH]c2ccccc12)C(=O)O | active
* S=c1[nH]c2ccccc2s1 | active
* O=[Si]=O | active
* CCCCCCCCCC[N+](C)(C)[O-] | active
* O=C(O)CC(O)(CC(=O)O)C(=O)O | active
* Nc1nc(=S)c2[nH]cnc2[nH]1 | active
* O=C(O)CN(CC(=O)O)CC(=O)O | active
* CC(C)(O)c1ccc(CNC(=O)c2cccnc2Oc2ccc(F)cc2)cc1 | active
* CSc1ccc(Oc2ccc(S(N)(=O)=O)cc2CN(C)C)cc1C | active
* Cc1cc(SC2=C(O)C[C@@](CCc3ccc(N)cc3)(C(C)C)OC2=O)c(C(C)(C)C)cc1CO | active
* Nc1nc(Cl)nc2c1ncn2[C@H]1C[C@H](O)[C@@H](CO)O1 | active
* O=C1CCCCC1 | inactive
* CCCCCCCCCCCCCCCCO | active

---

Target: Bile acid receptor (Homo sapiens)
Experiment: OT_FXR_FXRSRC1_0480: Odyssey Thera (OT) 8-hour HEK293T Protein-Complementation Assay for Farnesoid X receptor/SRC-1 Co-activator (AID 2283383)
Method: OT_FXR_FXRSRC1_0480 is a cell-based assay that uses HEK293T, a human kidney cell line, with measurements taken at 8 hours after chemical dosing in a 384-well plate.OT_FXR_FXRSRC1_0480 is one of one assay component(s) measured or calculated from the OT_FXR_FXRSRC1_0480 assay. […] This assay endpoint, OT_FXR_FXRSRC1_0480, was analyzed in the positive analysis fitting direction relative to DMSO as the negative control and baseline of activity. […]
Records with an inconclusive call do not appear. Activity calls are given as the source filed them. How the source made its calls: active means hit-call score of the fitted dose curve at least 0.9, where 1 is the maximum; inconclusive means response in the unintended direction; inactive means score below 0.9.
Outcomes: 1 for active, 0 for inactive

* CC(=O)OC1CC(C)OC(C)O1 (stereo not drawn) | 0
* O=C(N[C@@H](c1ccccc1)[C@@H]1CCCCN1)c1cccc(C(F)(F)F)c1Cl | 1
* O=C(NS(=O)(=O)/C=C/c1cccs1)c1ccc(F)cc1Br | 0
* CN(C)C(=O)NC1(c2ccccc2)CCN(CCC[C@]2(c3ccc(Cl)c(Cl)c3)CCCN(C(=O)c3ccccc3)C2)CC1 | 1
* CC(COCC(C)OC(=O)c1ccccc1)OC(=O)c1ccccc1 (stereo not drawn) | 1
* C=CCCCCCCCCCCCC | 0
* Cc1cn([C@H]2C=C[C@@H](CO)O2)c(=O)[nH]c1=O | 0
* COc1ccc(OC(F)(F)F)cc1CN[C@H]1CCCN[C@H]1c1ccccc1 | 1

---

Read-out: Interferon-gamma inducible Protein 10 (IP10), CXCL10 (gene 3627)
Experiment: BSK_BE3C_IP10: BioMAP Diversity Plus: BE3C Assay for Interferon-gamma inducible Protein 10 (IP10) Biomarker Activity (AID 2283034)
Details: primary human bronchial epithelial cells; actives raise or lower the signal
The source made the active and inactive calls. Rule for the calls: active = hit-call score of the fitted dose curve at least 0.9, where 1 is the maximum; inactive = score below 0.9.
Possible outcomes: class 1 = active, class 0 = inactive

* NCCOCCOCCN | class 0
* CC(=O)CC(c1ccccc1)c1c(O)c2ccccc2oc1=O (centres undefined) | class 0
* CN(C)CCCN(C)CCCN(C)C | class 0
* Nc1nc(Cl)nc2c1ncn2[C@H]1C[C@H](O)[C@@H](CO)O1 | class 0
* CCN(CC)CCOc1ccc(C(=C(Cl)c2ccccc2)c2ccccc2)cc1 | class 1
* Oc1ccc(O)cc1 | class 0
* O=Cc1ccccc1C=O | class 0
* CCCCCCC(CCCCCCCCCCC(=O)OCC(COC(C)=O)OC(C)=O)OC(C)=O (centres undefined) | class 1
* O=C1CCCCC1 | class 0

---

Read-out: Bcl-2 (BID) gene, BID (gene 637)
Assay: LTEA_HepaRG_BID: Life Technologies and Expression Analysis (LTEA) Assay for Bcl-2 (BID) gene using HepaRG (AID 2283476)
Conditions: mRNA level, 48 h; actives raise or lower the signal
Experimental: LTEA_HepaRG is a cell based, multiplexed-readout assay that uses HepaRG, a human liver cell line, with measurements taken at 48 hours after chemical dosing on a 96-well plate.LTEA_HepaRG_BID is one of 102 assay component(s) measured in the LTEA HepaRG cell culture assay. It is a marker of Cell proliferation, survival, death.Data from the assay component LTEA_HepaRG_BID was analyzed into 1 endpoint. […]
Calls of active or inactive are those of the source. Rule for the calls: active = hit-call score of the fitted dose curve at least 0.9, where 1 is the maximum; inactive = score below 0.9.
Outcome codes: active, inactive

• COC(=O)[C@H]1[C@H]2C[C@@H]3c4[nH]c5cc(OC)ccc5c4CCN3C[C@H]2C[C@@H](OC(=O)c2cc(OC)c(OC)c(OC)c2)[C@@H]1OC = inactive
• NCCOCCOCCN = inactive
• CC(C)OC(=O)C(C)(C)Oc1ccc(C(=O)c2ccc(Cl)cc2)cc1 = active
• CCCCc1nc2cccnc2n1Cc1ccc(-c2ccccc2-c2nnn[nH]2)cc1 = inactive
• CSc1ccc(Oc2ccc(S(N)(=O)=O)cc2CN(C)C)cc1C = inactive
• NC=O = inactive
• Oc1ccccc1O = inactive
• Cc1cn([C@H]2C=C[C@@H](CO)O2)c(=O)[nH]c1=O = inactive
• CCCCCCC(C=O)=Cc1ccccc1 = inactive
• O=C(O)c1[nH]n(-c2ccc(S(=O)(=O)O)cc2)c(=O)c1N=Nc1ccc(S(=O)(=O)O)cc1 = inactive
• CC(=O)OCC(COC(C)=O)OC(C)=O = inactive
• S=c1[nH]c2ccccc2s1 = inactive
• C/C=C/c1ccc(OC)cc1 = inactive
• CCCC[C@H]1CN(CC2CCOCC2)C(=O)OC12CCN(C1(C)CCN(C(=O)c3c(C)ncnc3C)CC1)CC2 = inactive
• CC(C)c1cccc(C(C)C)c1 = inactive
• Cc1ccc(-c2cc(C(F)(F)F)nn2-c2ccc(S(N)(=O)=O)cc2)cc1 = inactive
• CCN(CC)CCOc1ccc(C(=C(Cl)c2ccccc2)c2ccccc2)cc1 = inactive
• Cc1occc(=O)c1O = inactive
• CCCCC(CC)CO (stereo not given) = inactive
• CC(=O)O = inactive
• COC(=O)CCCC(=O)OC = inactive
• CC(C)c1cccc(C(C)C)c1NC(=O)NS(=O)(=O)c1cc(C(C)(C)O)co1 = inactive
• CC(C)COC(=O)CCCCC(=O)OCC(C)C = inactive
• Cn1cnc2c1c(=O)[nH]c(=O)n2C = inactive
• CCCC(=O)O = inactive
